Reported growth inhibition values follow for various compounds
assay: NCI Yeast Anticancer Drug Screen. Data for the cln2 rad14 strain (AID 165);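 note: 0% = growth equal to vehicle treated cultures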; settings: S. cerevisiae cln2 rad14 strain, at 50.0 µM, active compounds read high
This is part of a sample that, as a whole, favours compounds with a hit. Of some 79,000 tested, about 15% had one in any assay.
# number only, unit % dropped from output

Example entries and their recorded answers appear below.
| COMPOUND | growth inhibition [%] |
| --- | --- |
| O=C(O)C1Nc2ccccc2NC1=O (stereo not drawn) | -47 |
| Cc1ccc(C)n1N(c1ccccc1)c1ccccc1 | -36.4 |
| O=C(O)c1ccc(C(=O)c2ccccc2)c(C(=O)O)c1 | -8.7 |
| COC(=O)c1cc(C)c2c3ccccc3n(C)c2c1C(=O)OC | -1.5 |
| CCCCCCCCCCNC(=O)C(OC(C)=O)C(OC(C)=O)C(OC(C)=O)C(COC(C)=O)OC(C)=O (stereo not drawn) | 32.1 |
| O=CNCC(=O)Nc1ccccc1 | -6.9 |

// returns reported growth inhibition for input Cc1cc2c(cc1C)C(C)(C)c1c(nc(N)[nH]c1=O)N2C
-15.7

// returns reported growth inhibition for input CC(=O)C1=CCC(C(C)C)C1 (stereo not drawn)
-1.3

// returns reported growth inhibition for input CCOC(=O)NC(S(=O)(=O)O)S(=O)(=O)O
-9.8

// returns reported growth inhibition for input O=C(Nc1ccccc1C(F)(F)F)Oc1ccc(Cl)cc1Cc1ccccc1
99.3

// returns reported growth inhibition for input CCCCCC(=O)N1CCOCC1
-6.35
